Kindly supply the reported Kd values for the records listed here.
Target: T1, AFP158/HLA-A*02:01 complex (human)
T1 construct: flowed as analyte in SPR
Experiment: SPR, crude scFv captured, pMHC analyte;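 note: Peptide-MHC complex at several concentrations passed over captured scFv, association then buffer-driven dissociation, on- and off-rates fitted from the curves and KD estimated from them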
Give the value; after it, write the unit.

Give recorded Kd. AS170036 VL1VH1-VHG108A (scFv) scFv: QSALTQPRSVSGSPGQSVTISCAGTSSDVGSENYVSWYQQHPGKAPKLMIYQVNKRASGVPDRFSGSKSGNTASLTISGLQAEDEADYYCASYRSSDHNIVFGGGTKLTVLGGGGSGGGGSGGGGSEVQLVESGGGLVQPGGSLRLSCAASGFTFSSYAMSWVRQAPGKGLEWVSTINSGTGSPYYADSVKGRFTISRDNSKNTLYLQMNSLRAEDTAVYYCAKNFFDGSWFLAPPAMDYWGQGTLVTVSSHHHHHH
42 nM

Give recorded Kd. AS170036 VL1VH1 (scFv, Crude scFv from E. coli TG1 supernatant; also called AS170036 VL1VH1 scFv) scFv: QSALTQPRSVSGSPGQSVTISCAGTSSDVGSENYVSWYQQHPGKAPKLMIYQVNKRASGVPDRFSGSKSGNTASLTISGLQAEDEADYYCASYRSSDHNIVFGGGTKLTVLGGGGSGGGGSGGGGSEVQLVESGGGLVQPGGSLRLSCAASGFTFSSYAMSWVRQAPGKGLEWVSTINSGTGSPYYADSVKGRFTISRDNSKNTLYLQMNSLRAEDTAVYYCAKNFFDGSWFLGPPAMDYWGQGTLVTVSSHHHHHH
270 nM

Give recorded Kd. AS170036 VL1VH1-VHG108E (scFv) scFv: QSALTQPRSVSGSPGQSVTISCAGTSSDVGSENYVSWYQQHPGKAPKLMIYQVNKRASGVPDRFSGSKSGNTASLTISGLQAEDEADYYCASYRSSDHNIVFGGGTKLTVLGGGGSGGGGSGGGGSEVQLVESGGGLVQPGGSLRLSCAASGFTFSSYAMSWVRQAPGKGLEWVSTINSGTGSPYYADSVKGRFTISRDNSKNTLYLQMNSLRAEDTAVYYCAKNFFDGSWFLEPPAMDYWGQGTLVTVSSHHHHHH
56 nM
